Every entry's value here was drawn from patent US20230210857A1.

Test Description: Three-phase pharmacokinetics (PK) study in minipigs, single IV and IM doses
Stated Conditions: male, Gottingen, minipig, in vivo, iv, 4.8 mg/kg, Cmax
Protocol: The study consisted of conducting a bioequivalence (BE) study in minipigs. Two formulations of a Compound having Formula (I) (N-(4,6-Bis-n-propylamino-[1,3,5]triazin-2-yl)-O,N-dimethyl-hydroxylamine) were tested in the study as follows: For IV administration, minipigs (n=3) received a single IV bolus (1-2 minutes) administration of the Compound having Formula (I) (N-(4,6-Bis-n-propylamino-[1,3,5]triazin-2-yl)-O,N-dimethyl-hydroxylamine) via VAP (vascular access port) at the jugular vein. […]
Test Readout: Cmax (ng/mL)

smiles_text=CCCNc1nc(NCCC)nc(N(C)OC)n1 test_readout=Cmax measure_unit=ng/mL reported_value=2820

* * *

Test Description: Three-phase pharmacokinetics (PK) study in minipigs, single IV and IM doses
Stated Conditions: male, Gottingen, minipig, in vivo, iv, 4.8 mg/kg, Bioavailability
Test Readout: bioavailability (%)

smiles_text=CCCNc1nc(NCCC)nc(N(C)OC)n1 test_readout=bioavailability reported_value=100

* * *

Test Description: Three-phase pharmacokinetics (PK) study in minipigs, single IV and IM doses
Stated Conditions: male, Gottingen, minipig, in vivo, iv, 4.8 mg/kg, Mean plasma concentration
Test Readout: concentration at 24 hr (ng/mL)

compound="CCCNc1nc(NCCC)nc(N(C)OC)n1 [active agent]" measure_unit=ng/mL reported_value=0.8

* * *

Test Description: Three-phase pharmacokinetics (PK) study in minipigs, single IV and IM doses
Stated Conditions: male, Gottingen, minipig, in vivo, iv, 4.8 mg/kg, Mean plasma concentration
Test Readout: concentration at 0.5 hr (ng/mL)

molecule="CCCNc1nc(NCCC)nc(N(C)OC)n1 [active agent]" test_readout="concentration at 0.5 hr" reported_value=1020

* * *

Test Description: Three-phase pharmacokinetics (PK) study in minipigs, single IV and IM doses
Stated Conditions: male, Gottingen, minipig, in vivo, iv, 4.8 mg/kg, Tmax
Test Readout: Tmax (min)

molecule="CCCNc1nc(NCCC)nc(N(C)OC)n1 [active agent]" test_readout=Tmax reported_value=4.98

* * *

Test Description: Three-phase pharmacokinetics (PK) study in minipigs, single IV and IM doses
Stated Conditions: male, Gottingen, minipig, in vivo, iv, 4.8 mg/kg, Mean plasma concentration
Test Readout: concentration at 4 hr (ng/mL)

smiles_text=CCCNc1nc(NCCC)nc(N(C)OC)n1 test_readout="concentration at 4 hr" reported_value=40

* * *

Test Description: Three-phase pharmacokinetics (PK) study in minipigs, single IV and IM doses
Stated Conditions: male, Gottingen, minipig, in vivo, im, 4.8 mg/kg, AUClast
Method: The study consisted of conducting a bioequivalence (BE) study in minipigs. Two formulations of a Compound having Formula (I) (N-(4,6-Bis-n-propylamino-[1,3,5]triazin-2-yl)-O,N-dimethyl-hydroxylamine) were tested in the study as follows: For IV administration, minipigs (n=3) received a single IV bolus (1-2 minutes) administration of the Compound having Formula (I) (N-(4,6-Bis-n-propylamino-[1,3,5]triazin-2-yl)-O,N-dimethyl-hydroxylamine) via VAP (vascular access port) at the jugular vein. […]
Test Readout: AUC(0-t)

molecule="CCCNc1nc(NCCC)nc(N(C)OC)n1 [active agent]" test_readout=AUC(0-t) reported_value="2620 ng·h/mL"
